These entries and their values trace back to paper PMC8504818.

- TEST SUMMARY: Study 2
- Format: in vivo, human
- COND: human, plasma, oral, 100 mg, Plasma islatravir Cmax, Study 2; 100 mg once weekly; Week 1; LS mean (95% CI)
READOUT TYPE: Cmax (µM)

1) C#C[C@]1(CO)O[C@@H](n2cnc3c(N)nc(F)nc32)C[C@@H]1O ... 1.47

* * *

- TEST SUMMARY: Study 2
- Assay type: in vivo, human
- COND: human, plasma, oral, 10 mg
READOUT TYPE: concentration at 48 h

1) C#C[C@]1(CO)O[C@@H](n2cnc3c(N)nc(F)nc32)C[C@@H]1O ... < 1 ng/mL
